molecular target: Cytochrome P450 2C9 (Homo sapiens); assay: Cytochrome P450 family 2 subfamily C member 9 (CYP2C9) small molecule antagonists: luciferase biochemical (cell-free) qHTS assay (AID 1645842); settings: P450-Glo CYP2C9 enzyme assay, luciferin luminescence; series mostly up to 57.4 µM; also: nearly all actives have a fitted effect of over 55% in size
Inconclusive results are not listed. The source made the active and inactive calls. Calls follow the shape of the dose curve; as a rule, active = well fitted inhibition curve with a large enough effect in the repeat runs; inconclusive = weak or mixed curves; inactive = no such curve, though single readings can be large or run the other way.
Classes used: active, inactive

>  <MOLECULE>
C[N+](C)(C)CC(O)CC(=O)[O-] (stereo not drawn)

>  <CLASS LABEL>
inactive

$$$$
>  <MOLECULE>
O=c1[nH]c2cc(C(F)(F)F)c(N3CCOCC3)cc2n(CP(=O)(O)O)c1=O

>  <CLASS LABEL>
inactive

$$$$
>  <MOLECULE>
NNC(=O)CP(=O)(c1ccccc1)c1ccccc1

>  <CLASS LABEL>
active

$$$$
>  <MOLECULE>
CCN(CC)CCc1nc(-c2ccccc2)no1

>  <CLASS LABEL>
inactive

$$$$
>  <MOLECULE>
CCOc1ccc(C(=O)OCCN(CC)CC)cc1

>  <CLASS LABEL>
inactive

$$$$
>  <MOLECULE>
NS(=O)(=O)c1ccc(NC(=O)CCC(=O)O)cc1

>  <CLASS LABEL>
inactive

$$$$
>  <MOLECULE>
Nc1ncnc2c1ncn2[C@@H]1O[C@H](COP(=O)(O)O)[C@@H](O)[C@H]1O

>  <CLASS LABEL>
inactive

$$$$
>  <MOLECULE>
O=C(O)COC(=O)Cc1ccccc1Nc1c(Cl)cccc1Cl

>  <CLASS LABEL>
active

$$$$
>  <MOLECULE>
OCC(O)CS (stereo not drawn)

>  <CLASS LABEL>
inactive

$$$$
>  <MOLECULE>
O=C(O)CCC(=O)O

>  <CLASS LABEL>
inactive

$$$$
>  <MOLECULE>
COc1ccc(C(=O)NCc2ccc(OCCN(C)C)cc2)cc1OC

>  <CLASS LABEL>
inactive

$$$$
>  <MOLECULE>
O=C(O)c1cc(=O)c2ccccc2o1

>  <CLASS LABEL>
inactive

$$$$
>  <MOLECULE>
Cn1cc(C(=O)[C@@H]2CCc3nc[nH]c3C2)c2ccccc21

>  <CLASS LABEL>
inactive

$$$$

---

assay: qHTS assay for measurement of the activity of small molecule inhibitors on Zika virus induced Caspase-3 activity in human astrocytoma cells (AID 1224859); details: SNB-19 ZIKV-induced caspase-3/7, luminescence, 6 h; series mostly up to 45.7 µM
The source made the active and inactive calls. Calls come from the whole dose curve; as a rule, active = well fitted inhibition curve with a large enough effect; inconclusive = small, poorly fitted or top-dose-only effect; inactive = no such curve, though single readings can be large or run the other way.
METRIC: activity change, negative = inhibition

>  <COMPOUND>
CN1CC(=O)NC1=N

>  <METRIC>
activity change, negative = inhibition

>  <EXPERIMENTAL VALUE>
inactive

$$$$
>  <COMPOUND>
Cc1ccc(C(C)C)c(O)c1

>  <METRIC>
activity change, negative = inhibition

>  <EXPERIMENTAL VALUE>
inactive

$$$$
>  <COMPOUND>
CC(C)C[C@@H](N)C(=O)O

>  <METRIC>
activity change, negative = inhibition

>  <EXPERIMENTAL VALUE>
inactive

$$$$
>  <COMPOUND>
C/C(=C(\CCO)SS/C(CCO)=C(\C)N(C=O)Cc1cnc(C)nc1N)N(C=O)Cc1cnc(C)nc1N

>  <METRIC>
activity change, negative = inhibition

>  <EXPERIMENTAL VALUE>
inactive

$$$$
>  <COMPOUND>
NS(=O)(=O)c1cc2c(cc1C(F)(F)F)NCNS2(=O)=O

>  <METRIC>
activity change, negative = inhibition

>  <EXPERIMENTAL VALUE>
inactive

$$$$
>  <COMPOUND>
CCN[C@H]1CN(CCCOC)S(=O)(=O)c2sc(S(N)(=O)=O)cc21

>  <METRIC>
activity change, negative = inhibition

>  <EXPERIMENTAL VALUE>
inactive

$$$$
>  <COMPOUND>
NNc1nnc(NN)c2ccccc12

>  <METRIC>
activity change, negative = inhibition

>  <EXPERIMENTAL VALUE>
inactive

$$$$
>  <COMPOUND>
CN1C(=O)CC(c2ccccc2)C1=O (stereo not given)

>  <METRIC>
activity change, negative = inhibition

>  <EXPERIMENTAL VALUE>
inactive

$$$$
>  <COMPOUND>
O=C(O)CCCCC1CCSS1 (stereo not given)

>  <METRIC>
activity change, negative = inhibition

>  <EXPERIMENTAL VALUE>
inactive

$$$$
>  <COMPOUND>
CC(=O)Nc1ccc(C(=O)O)cc1

>  <METRIC>
activity change, negative = inhibition

>  <EXPERIMENTAL VALUE>
inactive

$$$$
>  <COMPOUND>
O=C(O)Cc1ccc(CCNS(=O)(=O)c2ccc(Cl)cc2)cc1

>  <METRIC>
activity change, negative = inhibition

>  <EXPERIMENTAL VALUE>
inactive

$$$$
>  <COMPOUND>
FC(F)(F)C(Cl)Br (stereo not given)

>  <METRIC>
activity change, negative = inhibition

>  <EXPERIMENTAL VALUE>
inactive

$$$$
>  <COMPOUND>
CC(=O)[C@@]1(O)CC[C@H]2[C@@H]3C[C@H](C)C4=CC(=O)C=C[C@]4(C)[C@@]3(F)[C@@H](O)C[C@@]21C

>  <METRIC>
activity change, negative = inhibition

>  <EXPERIMENTAL VALUE>
inactive

$$$$
>  <COMPOUND>
NS(=O)(=O)c1cc(C2(O)NC(=O)c3ccccc32)ccc1Cl (stereo not given)

>  <METRIC>
activity change, negative = inhibition

>  <EXPERIMENTAL VALUE>
inactive

$$$$
>  <COMPOUND>
CC(C)(C)NCC(O)COc1cccc2c1CCC(=O)N2 (stereo not given)

>  <METRIC>
activity change, negative = inhibition

>  <EXPERIMENTAL VALUE>
inactive

$$$$
>  <COMPOUND>
CCCCC1(COC(=O)CCC(=O)O)C(=O)N(c2ccccc2)N(c2ccccc2)C1=O

>  <METRIC>
activity change, negative = inhibition

>  <EXPERIMENTAL VALUE>
inactive

$$$$
>  <COMPOUND>
CCS(=O)(=O)CCn1c([N+](=O)[O-])cnc1C

>  <METRIC>
activity change, negative = inhibition

>  <EXPERIMENTAL VALUE>
inactive

$$$$
>  <COMPOUND>
O=S1(=O)OC(c2ccc(O)cc2)(c2ccc(O)cc2)c2ccccc21

>  <METRIC>
activity change, negative = inhibition

>  <EXPERIMENTAL VALUE>
inactive

$$$$
>  <COMPOUND>
C=CCOc1ccccc1OCC(O)CNC(C)C (stereo not given)

>  <METRIC>
activity change, negative = inhibition

>  <EXPERIMENTAL VALUE>
inactive

$$$$
>  <COMPOUND>
O=C(O)[C@@H]1[C@H]2C[C@H]3c4[nH]c5ccccc5c4CCN3C[C@@H]2CC[C@@H]1O

>  <METRIC>
activity change, negative = inhibition

>  <EXPERIMENTAL VALUE>
inactive

$$$$
>  <COMPOUND>
c1ccc2[nH]ccc2c1

>  <METRIC>
activity change, negative = inhibition

>  <EXPERIMENTAL VALUE>
inactive

$$$$
>  <COMPOUND>
CCN(CC)CCc1nc(-c2ccccc2)no1

>  <METRIC>
activity change, negative = inhibition

>  <EXPERIMENTAL VALUE>
inactive

$$$$
>  <COMPOUND>
C1CCN2C[C@@H]3C[C@@H](CN4CCCC[C@@H]34)[C@H]2C1

>  <METRIC>
activity change, negative = inhibition

>  <EXPERIMENTAL VALUE>
inactive

$$$$
>  <COMPOUND>
Cc1cc(NC(=O)C2=C(O)c3ccccc3S(=O)(=O)N2C)no1

>  <METRIC>
activity change, negative = inhibition

>  <EXPERIMENTAL VALUE>
inactive

$$$$
>  <COMPOUND>
CC(=O)NS(=O)(=O)c1ccc(N)cc1

>  <METRIC>
activity change, negative = inhibition

>  <EXPERIMENTAL VALUE>
inactive

$$$$

Numbers sourced from PubChem BioAssay (NCATS).
